Assay: Aqueous solubility of the compound in 2% DMSO at pH 7.4 by HPLC analysis
Assay type: physicochemical
Details: aqueous medium with 2% DMSO
measured-property: solubility (µM)
One number for each entry, in µM.

Below, 6 compounds whose answers are already recorded.
molecular-string	measured-property	test-result
CCCCCCCc1cc(=O)c2cc(C(F)(F)F)ccc2n1C	solubility	5
CCCCCCCc1[nH]c2ccncc2c(=O)c1C(=O)O	solubility	50
CCOCCCCc1cc(=O)c2cc([N+](=O)[O-])ccc2[nH]1	solubility	50
CCCCCCCc1[nH]c2ccccc2c(=O)c1C(=O)OCC	solubility	5
CCCCCCc1cc(=O)c2cc(C(F)(F)F)ccc2n1C	solubility	15
CCCCCOCc1[nH]c2ccc([N+](=O)[O-])cc2c(=O)c1C(=O)O	solubility	50

Provide solubility values for the following items, in order.
1. CCCCCCCc1cc(O)c2ccccc2n1
2. CCCCCCCc1[nH]c2ccc([N+](=O)[O-])cc2c(=O)c1C(N)=O
3. CCCCCOCc1[nH]c2ccc([N+](=O)[O-])cc2c(=O)c1C(=O)OCC

Solution:
[15, 15, 15]

Provide solubility values for the following items, in order.
1. CCCCCCCc1[nH]c2ccccc2c(=O)c1CO
2. CCCCCCCc1[nH]c2ccc([N+](=O)[O-])cc2c(=O)c1C(=O)O
3. CCCCCCCc1[nH]c2ccc([N+](=O)[O-])cc2c(=O)c1C(=O)OCC

Solution:
[50, 15, 5]
